Target: Human GSDMD (Homo sapiens)
Construct: His6-MBP (N, cleaved yes); made in house; host or cells: E. coli BL21 (DE3) for GSDMD; Sf9 for caspase-11
Assay: Liposome leakage assay (Tb3+/DPA), GSDMD plus caspase-11
Type: biochemical
Details: Table 2; leakage assay; read-out: IC50
measured.metric: IC50 (nM)
Form entry: value (nM) — number only.

compound: CN1CCN(C(=S)SSC(=S)N2CCN(C)CC2)CC1 [C-23A4]
IC50 [nM]: 260
--
compound: CCCCN(CCCC)C(=S)SSC(=S)N(CCCC)CCCC [C-23A3, tetrabutylthiuram disulfide]
IC50 [nM]: 460

Request the reported IC50 associated with Cc1ccc(N(C)C(=S)SSC(=S)N(C)c2ccc(C)cc2)cc1 [C-23A6]
350

Request the reported IC50 associated with CN(C(=S)SSC(=S)N(C)c1ccncc1)c1ccncc1 [C-23A8]
1250

Request the reported IC50 associated with S=C(SSC(=S)N1CCCC1)N1CCCC1 [C-23A10]
260

Request the reported IC50 associated with CC(C)N(C(=S)SSC(=S)N(C(C)C)C(C)C)C(C)C [C-23A2, Tetraisopropylthiuram disulfide]
370

Request the reported IC50 associated with S=C(SSC(=S)N1CCCCC1)N1CCCCC1 [C-23A9, dicyclopentamethylenethiuram disulfide]
260

Request the reported IC50 associated with S=C(SSC(=S)N(Cc1ccccc1)Cc1ccccc1)N(Cc1ccccc1)Cc1ccccc1 [C-23A12, Tetrabenzylthiuram disulfide]
2930

* * *

Target: caspase-11 (Mus musculus, UniProt P70343)
Sequence (P70343 81-373): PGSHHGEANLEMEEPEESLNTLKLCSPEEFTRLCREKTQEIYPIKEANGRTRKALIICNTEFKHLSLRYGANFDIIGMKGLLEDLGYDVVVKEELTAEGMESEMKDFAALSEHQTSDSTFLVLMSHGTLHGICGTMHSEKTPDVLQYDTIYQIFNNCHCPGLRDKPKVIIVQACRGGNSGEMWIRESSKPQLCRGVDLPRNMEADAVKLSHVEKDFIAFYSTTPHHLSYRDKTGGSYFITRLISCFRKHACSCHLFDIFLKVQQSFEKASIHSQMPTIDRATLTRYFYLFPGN
measured.metric: pIC50
// pIC50 is dimensionless: -log10 of concentration (M)

Identify the measured pIC50 of CCN(CC)C(=S)SSC(=S)N(CC)CC [C-23, Tetraethylthiuram disulfide] for caspase-11 (Mus musculus, UniProt P70343).
6.14

* * *

Target: caspase-1 (Homo sapiens, UniProt P29466)
Sequence (P29466 120-404, species assumed): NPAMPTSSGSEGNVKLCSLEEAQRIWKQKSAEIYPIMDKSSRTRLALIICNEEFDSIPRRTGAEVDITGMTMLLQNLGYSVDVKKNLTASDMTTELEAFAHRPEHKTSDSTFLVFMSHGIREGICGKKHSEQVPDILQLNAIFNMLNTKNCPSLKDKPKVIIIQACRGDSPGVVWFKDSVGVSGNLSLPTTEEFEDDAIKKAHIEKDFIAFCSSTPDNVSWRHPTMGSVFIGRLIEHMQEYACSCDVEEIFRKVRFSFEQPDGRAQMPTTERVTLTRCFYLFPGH
measured.metric: IC50 (nM)
Form entry: value (nM) — number only.

Request the reported IC50 associated with CCN(CC)C(=S)SSC(=S)N(CC)CC [C-23, Tetraethylthiuram disulfide]
150

* * *

Molecular target: mouse GSDMA3-3C (Mus musculus)
Construct: other: 3C-cleaved GSDMA3-3C; Human GSDMD-3C and mouse GSDMA3-3C mutants were constructed by QuikChange Mutagenesis (Agilent Technologies); fused on or other part: His6-MBP tag, removed by TEV before use; The engineered 3C site is cut by 3C protease, so the N-terminal pore-forming fragment is set free in the well
Sequence (Q5Y4Y6 with tags, fused parts or gaps INS262LEVLFQGP): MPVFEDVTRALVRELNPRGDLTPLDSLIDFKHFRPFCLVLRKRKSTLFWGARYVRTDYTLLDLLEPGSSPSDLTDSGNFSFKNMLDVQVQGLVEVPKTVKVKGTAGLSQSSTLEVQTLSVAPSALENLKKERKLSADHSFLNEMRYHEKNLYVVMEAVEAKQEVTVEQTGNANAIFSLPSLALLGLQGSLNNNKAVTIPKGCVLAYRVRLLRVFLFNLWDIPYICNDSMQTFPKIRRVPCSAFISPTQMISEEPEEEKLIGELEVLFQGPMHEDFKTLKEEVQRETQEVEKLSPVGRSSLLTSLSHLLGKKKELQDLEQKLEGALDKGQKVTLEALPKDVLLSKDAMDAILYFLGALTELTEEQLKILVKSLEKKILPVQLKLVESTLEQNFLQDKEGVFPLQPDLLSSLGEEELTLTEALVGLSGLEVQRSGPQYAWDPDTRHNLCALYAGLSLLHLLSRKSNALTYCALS
Assay: Liposome leakage assay, GSDMA3-3C plus 3C protease
Settings: read-out: IC50 of liposome leakage; 3C-cleaved GSDMA3-3C
measured.metric: IC50 (µM)
Form entry: value (µM) — number only.

Request the reported IC50 associated with CCN(CC)C(=S)SSC(=S)N(CC)CC [C-23, Tetraethylthiuram disulfide]
12.1

* * *

As shown below, each of these compounds has a reported pIC50 value.
Biological target: Human GSDMD (Homo sapiens, UniProt P57764)
Construct: His6-MBP (N, cleaved yes); made in house; host or cells: E. coli BL21 (DE3) for GSDMD; Sf9 for caspase-11
Assay: Liposome leakage assay (Tb3+/DPA), GSDMD plus caspase-11
Assay type: biochemical
Conditions: WT GSDMD, caspase-11-triggered; read-out: IC50 of liposome leakage
// pIC50 is dimensionless: -log10 of concentration (M)

compound: COc1nccnc1NS(=O)(=O)c1ccc(NC(=O)/C=C/c2ccc([N+](=O)[O-])s2)cc1 [necrosulfonamide]
pIC50: 5.02

Turning now to a further compound:
Identify the measured pIC50 of Cc1ccc(S(=O)(=O)/C=C/C#N)cc1 [Bay 11-7082] for Human GSDMD (Homo sapiens, UniProt P57764).
5.17

* * *

Molecular target: Human GSDMD (Homo sapiens, UniProt P57764)
Construct: His6-MBP (N, cleaved yes); made in house; host or cells: E. coli BL21 (DE3) for GSDMD; Sf9 for caspase-11
Sequence (P57764 1-484): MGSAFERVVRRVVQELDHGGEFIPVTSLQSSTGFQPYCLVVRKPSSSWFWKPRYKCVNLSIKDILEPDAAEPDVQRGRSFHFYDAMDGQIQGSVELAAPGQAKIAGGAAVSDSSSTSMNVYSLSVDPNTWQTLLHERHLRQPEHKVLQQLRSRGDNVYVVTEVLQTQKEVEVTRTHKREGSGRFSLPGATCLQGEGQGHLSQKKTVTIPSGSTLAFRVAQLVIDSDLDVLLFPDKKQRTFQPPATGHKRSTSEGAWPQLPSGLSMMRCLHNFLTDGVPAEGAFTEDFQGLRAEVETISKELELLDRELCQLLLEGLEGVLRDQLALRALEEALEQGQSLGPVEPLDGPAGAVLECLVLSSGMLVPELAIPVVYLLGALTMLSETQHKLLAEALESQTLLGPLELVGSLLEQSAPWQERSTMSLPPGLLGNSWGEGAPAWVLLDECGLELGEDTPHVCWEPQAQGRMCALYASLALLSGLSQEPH
Assay: Liposome leakage assay (Tb3+/DPA), GSDMD plus caspase-11
Assay type: biochemical
Conditions: Table 2; leakage assay; read-out: IC50
As shown below, each of these compounds has a reported IC50 value.
Form entry: value (nM) — number only.

These recorded examples may help you get a feel for the data.
compound: S=C(SSC(=S)N1CCOCC1)N1CCOCC1 [C-23A7, di(4-morpholinyl)dithioperoxyanhydride]
IC50 (nM): 250
//
compound: S=C(SSC(=S)N(c1ccccc1)c1ccccc1)N(c1ccccc1)c1ccccc1 [C-23A5, Tetraphenylthiuram disulfide]
IC50 (nM): 3740
//
compound: CN(C(=S)SSC(=S)N(C)c1ccccc1)c1ccccc1 [C-23A11, dimethyldiphenylthiuram disulfide]
IC50 (nM): 370

Turning now to a further compound:
Request the reported IC50 associated with CN(C)C(=S)SSC(=S)N(C)C [C-23A1, tetramethylthiuram disulfide]
220
